Give measured Activity for each item. Keep answers brief.
Test system: Radical scavenging activity
Experiment: Antioxidant activity assessed as DPPH radical scavenging activity at 1 mM after 5 mins by ESR spectrometric analysis
Format: functional
The answer is to be given in %; state only the numeric part.

Look up Activity: `Cc1ccc2oc(=O)c(-c3ccc(O)cc3)cc2c1` 27.7

Look up Activity: `Cc1cccc2cc(-c3cc(O)c(O)c(O)c3)c(=O)oc12` 100

Look up Activity: `Cc1ccc2oc(=O)c(-c3ccc(O)c(O)c3)cc2c1` 28.3

Look up Activity: `Cc1ccc(-c2cc3cccc(O)c3oc2=O)cc1` 28.6

Look up Activity: `Cc1cccc2cc(-c3cc(O)cc(O)c3)c(=O)oc12` 11.2

Look up Activity: `Cc1cccc2cc(-c3ccc(O)c(O)c3)c(=O)oc12` 66.7

Look up Activity: `Cc1ccc2oc(=O)c(-c3cccc(O)c3)cc2c1` 3.4

Look up Activity: `O=c1oc2c(O)cccc2cc1-c1ccc(O)cc1` 65.9

Look up Activity: `Cc1ccc2oc(=O)c(-c3ccccc3O)cc2c1` 10.6

---

Assay: Antioxidant activity assessed as superoxide radical scavenging activity at 30 uM by cyclic voltammetric analysis
Format: functional
Short version: Activity at least 20% is yes, less is no.

Does the reported Activity for `O=c1oc2c(O)cccc2cc1-c1ccc(O)cc1` fall at or above the 20% mark? yes

Does the reported Activity for `Cc1cccc2cc(-c3ccc(O)c(O)c3)c(=O)oc12` fall at or above the 20% mark? yes

Does the reported Activity for `Cc1ccc(-c2cc3cccc(O)c3oc2=O)cc1` fall at or above the 20% mark? no

Does the reported Activity for `Cc1ccc2oc(=O)c(-c3cccc(O)c3)cc2c1` fall at or above the 20% mark? no

Does the reported Activity for `Cc1ccc2oc(=O)c(-c3ccc(O)cc3)cc2c1` fall at or above the 20% mark? no

Does the reported Activity for `Cc1ccc2oc(=O)c(-c3ccccc3O)cc2c1` fall at or above the 20% mark? yes

Does the reported Activity for `Cc1cccc2cc(-c3cc(O)c(O)c(O)c3)c(=O)oc12` fall at or above the 20% mark? yes

Does the reported Activity for `Cc1ccc2oc(=O)c(-c3ccc(O)c(O)c3)cc2c1` fall at or above the 20% mark? yes

Does the reported Activity for `Cc1cccc2cc(-c3cc(O)cc(O)c3)c(=O)oc12` fall at or above the 20% mark? yes
